target: human MMP13 (Homo sapiens (Human), UniProt P45452); settings: read-out: hMMP-13 potency IC50
pIC50: −log10 of the molar value.
Collected pIC50 values appear next to each entry.

{"COMPOUND": "COCC1(CC(C)C(=O)N2CCN(c3cc(Cl)cc(Cl)c3)CC2)NC(=O)NC1=O (centres unmarked) [compound 427]", "pIC50": "< 5.40"}
{"COMPOUND": "O=C1NC(=O)C(CCC(=O)N2CCN(c3cccc(Cl)c3)CC2)(CN2CCOCC2)N1 (centres unmarked)", "pIC50": "< 4.70"}
{"COMPOUND": "CC1(CCC(=O)N2CCN(c3cccnc3)CC2)NC(=O)NC1=O (centres unmarked)", "pIC50": "< 4.70"}
{"COMPOUND": "O=C1NC(=O)C(CCC(=O)N2CCN(c3cc(Cl)cc(Cl)c3)CC2)(CNCc2ccccc2)N1 (centres unmarked)", "pIC50": "< 4.70"}
{"COMPOUND": "CC(CC1(C2CC2)NC(=O)NC1=O)C(=O)N1CCN(c2cc(Cl)cc(Cl)c2)CC1 (centres unmarked) [compound 409]", "pIC50": 5.56}
{"COMPOUND": "CC(CC1(C2CC2)NC(=O)NC1=O)C(=O)N1CCN(c2ccc(Cl)cc2)[C@@H](C)C1 (some centres unmarked) [compound 193]", "pIC50": 6.36}
{"COMPOUND": "CC(CC1(C2CC2)NC(=O)NC1=O)C(=O)N1CCN(c2cccc(Cl)c2)CC1 (centres unmarked)", "pIC50": 7.15}
{"COMPOUND": "COCC1(CC(C)C(=O)N2CCN(c3cc(F)ccc3C)CC2)NC(=O)NC1=O (centres unmarked)", "pIC50": "< 4.70"}

====

molecular target: human ADAMTS-5 (Homo sapiens (Human)); conditions: read-out: hADAMTS-5 potency IC50
Sequence (Q9UNA0 262-930): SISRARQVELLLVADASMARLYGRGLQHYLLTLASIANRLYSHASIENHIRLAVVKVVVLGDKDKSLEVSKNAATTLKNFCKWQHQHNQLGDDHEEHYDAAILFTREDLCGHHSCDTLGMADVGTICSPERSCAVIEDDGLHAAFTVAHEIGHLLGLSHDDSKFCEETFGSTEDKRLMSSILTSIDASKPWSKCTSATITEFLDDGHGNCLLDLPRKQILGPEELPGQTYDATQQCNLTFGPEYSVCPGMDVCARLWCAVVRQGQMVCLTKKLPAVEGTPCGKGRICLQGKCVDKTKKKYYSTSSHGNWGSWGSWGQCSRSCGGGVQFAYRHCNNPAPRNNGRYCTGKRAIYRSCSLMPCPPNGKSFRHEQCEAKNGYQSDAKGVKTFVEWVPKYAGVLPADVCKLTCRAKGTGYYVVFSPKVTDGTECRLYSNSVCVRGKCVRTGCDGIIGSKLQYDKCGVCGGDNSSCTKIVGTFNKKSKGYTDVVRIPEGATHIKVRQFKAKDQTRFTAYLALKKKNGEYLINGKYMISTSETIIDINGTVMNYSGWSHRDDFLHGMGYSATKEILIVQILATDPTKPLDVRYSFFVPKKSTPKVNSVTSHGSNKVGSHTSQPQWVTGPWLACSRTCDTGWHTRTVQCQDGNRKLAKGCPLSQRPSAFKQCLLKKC
pIC50: −log10 of the molar value.
Outcome: 1 for pIC50 of at least 7; 0 for anything lower.

{"MOLECULE": "O=C1NC(=O)C(CC(O)C(=O)N2CCN(c3cc(Cl)cc(Cl)c3)CC2)(C2CC2)N1 (centres unmarked)", "CLASS_LABEL": 0}
{"MOLECULE": "Cc1ccc(-c2cccc(N3CCN(C(=O)CCC4(C5CC5)NC(=O)NC4=O)C[C@@H]3C)c2)cn1 (some centres unmarked)", "CLASS_LABEL": 0}
{"MOLECULE": "Cc1cc(N2CCN(C(=O)CC[C@@]3(C)NC(=O)NC3=O)CC2)cc(C)c1Cl", "CLASS_LABEL": 0}
{"MOLECULE": "C[C@H]1CN(C(=O)CCC2(C)NC(=O)NC2=O)CCN1c1cc(F)cc(Cl)c1 (some centres unmarked)", "CLASS_LABEL": 0}
{"MOLECULE": "CC(CC1(C2CC2)NC(=O)NC1=O)C(=O)N1CCN(c2ccc(Cl)cc2)[C@@H](C)C1 (some centres unmarked) [compound 193]", "CLASS_LABEL": 1}
{"MOLECULE": "CC(CC1(C)NC(=O)NC1=O)C(=O)N1C[C@H](C)N(c2cc(Cl)cc(Cl)c2)[C@@H](C)C1 (some centres unmarked)", "CLASS_LABEL": 0}

====

biological target: human MMP13 (Homo sapiens (Human)); conditions: read-out: hMMP-13 potency IC50
Collected IC50 values appear next to each entry.
READOUT: IC50

{"COMPOUND": "CN(C)Cc1ccc(C2(CCC(=O)N3CCN(c4cccc(Cl)c4)CC3)NC(=O)NC2=O)cc1 (centres unmarked)", "MEASUREMENT": "> 4 µM"}
{"COMPOUND": "Cc1c(F)cccc1N1CCN(C(=O)CCC2(C3CC3)NC(=O)NC2=O)CC1 (centres unmarked)", "MEASUREMENT": "> 20 µM"}
{"COMPOUND": "CC(CC1(CN2CCOCC2)NC(=O)NC1=O)C(=O)N1CCN(c2cc(Cl)cc(Cl)c2)CC1 (centres unmarked)", "MEASUREMENT": "> 20 µM"}
{"COMPOUND": "CC1(CCC(=O)N2CCN(c3ccc(F)cc3)CC2)NC(=O)NC1=O (centres unmarked)", "MEASUREMENT": "> 20 µM"}
{"COMPOUND": "CC(CC1(c2ccccn2)NC(=O)NC1=O)C(=O)N1CCN(c2cc(Cl)cc(Cl)c2)CC1 (centres unmarked) [compound 434]", "MEASUREMENT": "0.766 µM"}
{"COMPOUND": "COCC1(CC(C)C(=O)N2CCN(c3cc(Cl)cc(Cl)c3)CC2)NC(=O)NC1=O (centres unmarked) [compound 222]", "MEASUREMENT": "> 4 µM"}
{"COMPOUND": "CC(CC1(C2CN(C(=O)OC(C)(C)C)C2)NC(=O)NC1=O)C(=O)N1CCN(c2ccc(F)c(F)c2)CC1 (centres unmarked)", "MEASUREMENT": "0.0056 µM"}
{"COMPOUND": "CC(C)C1(CCC(=O)N2CCN(c3cc(Cl)cc(Cl)c3)CC2)NC(=O)NC1=O (centres unmarked)", "MEASUREMENT": "> 20 µM"}

====

target: human TACE (Homo sapiens (Human), UniProt P78536); details: read-out: TACE potency IC50
Sequence (P78536 whole entry, looked up, change not shown): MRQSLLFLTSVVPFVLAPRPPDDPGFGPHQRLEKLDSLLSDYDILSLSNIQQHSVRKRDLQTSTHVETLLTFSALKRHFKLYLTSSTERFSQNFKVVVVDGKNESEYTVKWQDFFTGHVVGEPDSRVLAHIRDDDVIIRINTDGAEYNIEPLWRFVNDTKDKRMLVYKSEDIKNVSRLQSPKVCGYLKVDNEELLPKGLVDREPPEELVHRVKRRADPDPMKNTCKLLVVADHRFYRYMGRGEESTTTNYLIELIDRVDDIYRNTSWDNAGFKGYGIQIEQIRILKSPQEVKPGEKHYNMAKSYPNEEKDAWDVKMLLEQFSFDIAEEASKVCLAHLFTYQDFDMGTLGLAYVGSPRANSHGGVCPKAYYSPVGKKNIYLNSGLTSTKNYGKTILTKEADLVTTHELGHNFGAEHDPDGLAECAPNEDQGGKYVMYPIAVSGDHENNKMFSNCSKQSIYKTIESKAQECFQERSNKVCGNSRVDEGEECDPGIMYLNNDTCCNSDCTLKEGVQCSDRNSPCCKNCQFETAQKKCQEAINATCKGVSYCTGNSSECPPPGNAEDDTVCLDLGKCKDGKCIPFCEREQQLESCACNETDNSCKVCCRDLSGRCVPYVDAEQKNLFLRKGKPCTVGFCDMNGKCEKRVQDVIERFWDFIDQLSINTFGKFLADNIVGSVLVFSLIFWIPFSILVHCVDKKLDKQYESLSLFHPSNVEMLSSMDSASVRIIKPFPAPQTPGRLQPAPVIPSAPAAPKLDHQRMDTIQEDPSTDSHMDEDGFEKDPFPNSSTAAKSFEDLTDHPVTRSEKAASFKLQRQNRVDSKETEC

{"COMPOUND": "CC(CC1(C2CC2)NC(=O)NC1=O)C(=O)N1CCN(c2cccnc2)[C@@H](C)C1 (stereo partly shown)", "IC50": "> 20 µM"}
{"COMPOUND": "C[C@H]1CN(C(=O)CCC2(c3cnn(C)c3)NC(=O)NC2=O)CCN1c1cc(F)cc(F)c1 (stereo partly shown)", "IC50": "> 4 µM"}
{"COMPOUND": "O=C1NC(=O)C(CCC(=O)N2CCN(c3ccc(F)c(Cl)c3)CC2)(c2ccccn2)N1 (stereo not shown)", "IC50": "3.59 µM"}
{"COMPOUND": "C[C@H]1CN(C(=O)CCC2(C)NC(=O)NC2=O)CCN1c1ccc(Cl)c(Cl)c1 (stereo partly shown)", "IC50": "> 20 µM"}
{"COMPOUND": "Cc1ccc(F)cc1N1CCN(C(=O)CCC2(c3cccnc3)NC(=O)NC2=O)CC1 (stereo not shown)", "IC50": "1.05 µM"}
{"COMPOUND": "CC1(CCC(=O)N2CCN(c3cc(Cl)cc(Cl)c3)CC2)NC(=O)NC1=O (stereo not shown)", "IC50": "2.72 µM"}
{"COMPOUND": "C[C@H]1CN(C(=O)CCC2(c3cccnc3)NC(=O)NC2=O)CCN1c1cc(F)cc(F)c1 (stereo partly shown)", "IC50": "> 4 µM"}
{"COMPOUND": "CC(C)C1(CCC(=O)N2CCN(c3cc(Cl)cc(Cl)c3)CC2)NC(=O)NC1=O (stereo not shown)", "IC50": "2.27 µM"}
{"COMPOUND": "CC(CC1(C2CC2)NC(=O)NC1=O)C(=O)N1CCN(c2ccc(F)cc2)[C@@H](C)C1 (stereo partly shown)", "IC50": "> 20 µM"}
{"COMPOUND": "C[C@H]1CN(C(=O)CCC2(c3ccccn3)NC(=O)NC2=O)CCN1c1cc(F)cc(F)c1 (stereo partly shown)", "IC50": "> 4 µM"}
{"COMPOUND": "CC(=O)NCC1(CCC(=O)N2CCN(c3cc(Cl)cc(Cl)c3)CC2)NC(=O)NC1=O (stereo not shown)", "IC50": "> 4 µM"}
{"COMPOUND": "C[C@H]1CN(C(=O)CCC2(C3CC3)NC(=O)NC2=O)CCN1c1cccnn1 (stereo partly shown)", "IC50": "> 20 µM"}
{"COMPOUND": "C[C@H]1CN(C(=O)CCC2(C)NC(=O)NC2=O)CCN1c1ccc(F)c(F)c1 (stereo partly shown)", "IC50": "> 20 µM"}
{"COMPOUND": "Cc1ccccc1N1CCN(C(=O)CC[C@@]2(c3ccccc3)NC(=O)NC2=O)CC1", "IC50": "> 2 µM"}
{"COMPOUND": "Cc1c(Cl)cccc1N1CCN(C(=O)CCC2(c3ccccc3)NC(=O)NC2=O)CC1 (stereo not shown)", "IC50": "2.06 µM"}
{"COMPOUND": "COC(CC1(C)NC(=O)NC1=O)C(=O)N1CCN(c2ccc(F)c(Cl)c2)[C@@H](C)C1 (stereo partly shown)", "IC50": "> 20 µM"}

====

// log10 of IC50 collected for rnADAMTS-5 (1-564-6H) (Rattus norvegicus, UniProt Q6TY19)
READOUT: log10 of IC50 (log10 of the value in nM)

{"COMPOUND": "COC(=O)CC1(CCC(=O)N2CCN(c3cc(Cl)cc(Cl)c3)CC2)NC(=O)NC1=O (stereo not shown) [Cpd 182]", "EXPERIMENTAL_TARGET": "rnADAMTS-5 (1-564-6H) (Rattus norvegicus, UniProt Q6TY19)", "log10 of IC50": 1.94}
{"COMPOUND": "CC1CN(C(=O)CCC2(c3cccnc3)NC(=O)NC2=O)CCN1c1ccccc1 (stereo not shown) [compound 105]", "EXPERIMENTAL_TARGET": "rnADAMTS-5 (1-564-6H) (Rattus norvegicus, UniProt Q6TY19)", "log10 of IC50": 2.21}
{"COMPOUND": "CC(CC1(C)NC(=O)NC1=O)C(=O)N1CCN(c2ccc(F)c(Cl)c2)[C@@H](C)C1 (stereo partly shown) [compound 405]", "EXPERIMENTAL_TARGET": "rnADAMTS-5 (1-564-6H) (Rattus norvegicus, UniProt Q6TY19)", "log10 of IC50": 1.26}
{"COMPOUND": "Cc1ccc(Cl)cc1N1CCN(C(=O)CCC2(c3cccnc3)NC(=O)NC2=O)CC1 (stereo not shown) [compound 46]", "EXPERIMENTAL_TARGET": "rnADAMTS-5 (1-564-6H) (Rattus norvegicus, UniProt Q6TY19)", "log10 of IC50": 1.62}
{"COMPOUND": "Cc1c(Cl)cccc1N1CCN(C(=O)CCC2(C3CC3)NC(=O)NC2=O)CC1 (stereo not shown) [compound 98]", "EXPERIMENTAL_TARGET": "rnADAMTS-5 (1-564-6H) (Rattus norvegicus, UniProt Q6TY19)", "log10 of IC50": 1.91}
{"COMPOUND": "COCCNC(=O)CC1(CCC(=O)N2CCN(c3cc(Cl)cc(Cl)c3)CC2)NC(=O)NC1=O (stereo not shown) [compound 187]", "EXPERIMENTAL_TARGET": "rnADAMTS-5 (1-564-6H) (Rattus norvegicus, UniProt Q6TY19)", "log10 of IC50": 2.60}
{"COMPOUND": "CC(CC1(C2CC2)NC(=O)NC1=O)C(=O)N1CCN(c2cc(F)cc(Cl)c2)[C@@H](C)C1 (stereo partly shown) [compound 194]", "EXPERIMENTAL_TARGET": "rnADAMTS-5 (1-564-6H) (Rattus norvegicus, UniProt Q6TY19)", "log10 of IC50": 0.70}
{"COMPOUND": "Cc1ccc(F)cc1N1CCN(C(=O)CCC2(C3CC3)NC(=O)NC2=O)C[C@@H]1C (stereo partly shown) [compound 148]", "EXPERIMENTAL_TARGET": "rnADAMTS-5 (1-564-6H) (Rattus norvegicus, UniProt Q6TY19)", "log10 of IC50": 1.99}
{"COMPOUND": "CS(=O)(=O)c1ccc(C2(CCC(=O)N3CCN(c4cccc(Cl)c4)CC3)NC(=O)NC2=O)cc1 (stereo not shown) [compound 124]", "EXPERIMENTAL_TARGET": "rnADAMTS-5 (1-564-6H) (Rattus norvegicus, UniProt Q6TY19)", "log10 of IC50": 1.57}
{"COMPOUND": "O=C1NC(=O)C(CCC(=O)N2CCN(c3cccc(F)c3)CC2)(C2CC2)N1 (stereo not shown) [compound 115]", "EXPERIMENTAL_TARGET": "rnADAMTS-5 (1-564-6H) (Rattus norvegicus, UniProt Q6TY19)", "log10 of IC50": 1.58}
{"COMPOUND": "CC(CC1(C)NC(=O)NC1=O)C(=O)N1CCN(c2ccccc2)[C@@H](C)C1 (stereo partly shown) [compound 217]", "EXPERIMENTAL_TARGET": "rnADAMTS-5 (1-564-6H) (Rattus norvegicus, UniProt Q6TY19)", "log10 of IC50": 1.69}
{"COMPOUND": "C[C@H]1CN(C(=O)CCC2(C)NC(=O)NC2=O)CCN1c1cc(F)cc(F)c1 (stereo partly shown) [compound 156]", "EXPERIMENTAL_TARGET": "rnADAMTS-5 (1-564-6H) (Rattus norvegicus, UniProt Q6TY19)", "log10 of IC50": 2.11}
{"COMPOUND": "CC1(CCC(=O)N2CCN(c3cncc(Br)c3)CC2)NC(=O)NC1=O (stereo not shown) [compound 86]", "EXPERIMENTAL_TARGET": "rnADAMTS-5 (1-564-6H) (Rattus norvegicus, UniProt Q6TY19)", "log10 of IC50": 3.25}
{"COMPOUND": "Cc1ccc(Cl)cc1N1CCN(C(=O)CCC2(C)NC(=O)NC2=O)CC1 (stereo not shown) [compound 16]", "EXPERIMENTAL_TARGET": "rnADAMTS-5 (1-564-6H) (Rattus norvegicus, UniProt Q6TY19)", "log10 of IC50": 2.52}
{"COMPOUND": "C[C@H]1CN(C(=O)CCC2(C3CC3)NC(=O)NC2=O)CCN1c1ccc(F)c(Cl)c1 (stereo partly shown) [compound 163]", "EXPERIMENTAL_TARGET": "rnADAMTS-5 (1-564-6H) (Rattus norvegicus, UniProt Q6TY19)", "log10 of IC50": 1.65}
{"COMPOUND": "C[C@H]1CN(C(=O)CC[C@@]2(C3CC3)NC(=O)NC2=O)CCN1c1ccc(F)c(F)c1 [compound 205]", "EXPERIMENTAL_TARGET": "rnADAMTS-5 (1-564-6H) (Rattus norvegicus, UniProt Q6TY19)", "log10 of IC50": 1.43}
